assay: Solubility in various solvents/solubilizing mixtures; type: physicochemical; details: 5% N-methyl-2-pyrrolidone in deionized water, aqueous with cosolvent or surfactant or cyclodextrin, kinetic from dmso stock; 5% N-methyl-2-pyrrolidone; compound dissolved in solvent first, then deionized water added
property: solubility (µg/mL)
State the answer as a number, implicitly in µg/mL.

Inquiry: # lookup: solubility of "Cc1onc2c1c(=O)n([C@H]1CCC[C@@H](CNC(=O)c3ccc(F)nc3)C1)c1cccc(Cl)c21"
Reply text: 4

* * *

assay: Solubility in various solvents/solubilizing mixtures; format: physicochemical; settings: Ethyl acetate, organic solvent or mixture
property: solubility (µg/mL)
Expressed in µg/mL, but write only the number.

Inquiry: What value of solubility has been reported for the following compound? "Cc1onc2c1c(=O)n([C@H]1CCC[C@@H](CNC(=O)c3ccc(F)nc3)C1)c1cccc(Cl)c21"
Reply text: 3

* * *

assay: Solubility in various solvents/solubilizing mixtures; assay type: physicochemical; details: Olive oil, oil or lipid
property: solubility

Inquiry: For the molecule "Cc1onc2c1c(=O)n([C@H]1CCC[C@@H](CNC(=O)c3ccc(F)nc3)C1)c1cccc(Cl)c21" , what solubility is on record?
Reply text: < 2000 µg/mL

* * *

experiment: Solubility in various solvents/solubilizing mixtures; format: physicochemical; details: DMA, organic solvent or mixture
property: solubility

Inquiry: What measured solubility goes with "Cc1onc2c1c(=O)n([C@H]1CCC[C@@H](CNC(=O)c3ccc(F)nc3)C1)c1cccc(Cl)c21" ?
Reply text: 208 to 416 mg/mL

* * *

experiment: Solubility in various solvents/solubilizing mixtures; assay type: physicochemical; details: 10% DMSO in deionized water, aqueous with cosolvent or surfactant or cyclodextrin, kinetic from dmso stock; 10% DMSO; compound dissolved in solvent first, then deionized water added
property: solubility (µg/mL)
Give the value, in units of µg/mL, as a plain number.

Inquiry: Any idea what its solubility is? The molecule is Cc1onc2c1c(=O)n([C@H]1CCC[C@@H](CNC(=O)c3ccc(F)nc3)C1)c1cccc(Cl)c21 [LSN 487355]
Reply text: 4

* * *

assay: Solubility in various solvents/solubilizing mixtures; type: physicochemical; details: Safflower oil, oil or lipid
property: solubility

Inquiry: // returns reported solubility for input "Cc1onc2c1c(=O)n([C@H]1CCC[C@@H](CNC(=O)c3ccc(F)nc3)C1)c1cccc(Cl)c21"
Reply text: < 2000 µg/mL

* * *

experiment: Solubility in various solvents/solubilizing mixtures; type: physicochemical; conditions: Labrasol, oil or lipid
property: solubility

Inquiry: Using the record for Cc1onc2c1c(=O)n([C@H]1CCC[C@@H](CNC(=O)c3ccc(F)nc3)C1)c1cccc(Cl)c21 [LSN 487355] , report its solubility.
Reply text: 4000 to 5000 µg/mL

* * *

assay: Solubility in various solvents/solubilizing mixtures; format: physicochemical; settings: Ethyl Oleate, oil or lipid
property: solubility

Inquiry: Requested read-out: solubility. Entry: Cc1onc2c1c(=O)n([C@H]1CCC[C@@H](CNC(=O)c3ccc(F)nc3)C1)c1cccc(Cl)c21 [LSN 487355]
Reply text: < 2000 µg/mL

* * *

Assay: Solubility in various solvents/solubilizing mixtures
Assay type: physicochemical
Conditions: Glycofurol, organic solvent or mixture
Text: The solubility of LSN 487355 in a variety of vehicles is illustrated in Table III.
property: solubility

Inquiry: // solubility lookup, key: Cc1onc2c1c(=O)n([C@H]1CCC[C@@H](CNC(=O)c3ccc(F)nc3)C1)c1cccc(Cl)c21 [LSN 487355]
Reply text: > 2000 µg/mL
